%Inh reference
system: RIOK3; conditions: concentration: 1 μM, replicates: in singlicate; n = 1;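 note: KINOMEscan kinase panel screen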
Form entry: value (%) — number only.

Fc1cc(Cl)ccc1Nc1ccnc2cc(-c3ccc(CN4CCCCC4)o3)ccc12 [GW560116] | 0

Per the reported RIOK3 data, O=C1NC(=O)C(N2CCc3ccccc32)=C1c1ccccc1Cl [SB-373598] has %Inh of 1

Per the reported RIOK3 data, Nc1ncnc2[nH]c(-c3ccccc3)nc12 [AH5015] has %Inh of 0

Per the reported RIOK3 data, Cl.c1ccc(-c2n[nH]cc2-c2ccnc(-c3ccc(CN4CCOCC4)cc3)c2)nc1 [GW776245] has %Inh of 20

Per the reported RIOK3 data, COc1cc2ncnc(Nc3ccc4nc(-c5ccccc5)[nH]c4c3)c2cc1OC.Cl [GW282450] has %Inh of 25

Per the reported RIOK3 data, O=C(Nc1n[nH]c2nc(-c3nccs3)c(Br)cc12)C1CCCC1 [SB-742609] has %Inh of 0

Per the reported RIOK3 data, Clc1cc(Cl)cc(Nc2ccnc(Nc3cc(Cl)cc(Cl)c3)n2)c1 [GSK175726] has %Inh of 35

Per the reported RIOK3 data, NC(=O)c1nnc2ccccc2c1N has %Inh of 57

Per the reported RIOK3 data, COc1ccc(Nc2nccc(-c3cccc(NC(=O)c4cc5cc(F)ccc5[nH]4)c3)n2)cc1 [GSK1229782] has %Inh of 50

All figures here come from paper PMC5540273.
